# study target: ΔF508-CFTR (Homo sapiens, UniProt P13569, DEL508-508)
# Construct: host or cells: CFBE41o-, doxycycline-inducible
# Sequence (P13569 with tags, fused parts or gaps DEL508-508): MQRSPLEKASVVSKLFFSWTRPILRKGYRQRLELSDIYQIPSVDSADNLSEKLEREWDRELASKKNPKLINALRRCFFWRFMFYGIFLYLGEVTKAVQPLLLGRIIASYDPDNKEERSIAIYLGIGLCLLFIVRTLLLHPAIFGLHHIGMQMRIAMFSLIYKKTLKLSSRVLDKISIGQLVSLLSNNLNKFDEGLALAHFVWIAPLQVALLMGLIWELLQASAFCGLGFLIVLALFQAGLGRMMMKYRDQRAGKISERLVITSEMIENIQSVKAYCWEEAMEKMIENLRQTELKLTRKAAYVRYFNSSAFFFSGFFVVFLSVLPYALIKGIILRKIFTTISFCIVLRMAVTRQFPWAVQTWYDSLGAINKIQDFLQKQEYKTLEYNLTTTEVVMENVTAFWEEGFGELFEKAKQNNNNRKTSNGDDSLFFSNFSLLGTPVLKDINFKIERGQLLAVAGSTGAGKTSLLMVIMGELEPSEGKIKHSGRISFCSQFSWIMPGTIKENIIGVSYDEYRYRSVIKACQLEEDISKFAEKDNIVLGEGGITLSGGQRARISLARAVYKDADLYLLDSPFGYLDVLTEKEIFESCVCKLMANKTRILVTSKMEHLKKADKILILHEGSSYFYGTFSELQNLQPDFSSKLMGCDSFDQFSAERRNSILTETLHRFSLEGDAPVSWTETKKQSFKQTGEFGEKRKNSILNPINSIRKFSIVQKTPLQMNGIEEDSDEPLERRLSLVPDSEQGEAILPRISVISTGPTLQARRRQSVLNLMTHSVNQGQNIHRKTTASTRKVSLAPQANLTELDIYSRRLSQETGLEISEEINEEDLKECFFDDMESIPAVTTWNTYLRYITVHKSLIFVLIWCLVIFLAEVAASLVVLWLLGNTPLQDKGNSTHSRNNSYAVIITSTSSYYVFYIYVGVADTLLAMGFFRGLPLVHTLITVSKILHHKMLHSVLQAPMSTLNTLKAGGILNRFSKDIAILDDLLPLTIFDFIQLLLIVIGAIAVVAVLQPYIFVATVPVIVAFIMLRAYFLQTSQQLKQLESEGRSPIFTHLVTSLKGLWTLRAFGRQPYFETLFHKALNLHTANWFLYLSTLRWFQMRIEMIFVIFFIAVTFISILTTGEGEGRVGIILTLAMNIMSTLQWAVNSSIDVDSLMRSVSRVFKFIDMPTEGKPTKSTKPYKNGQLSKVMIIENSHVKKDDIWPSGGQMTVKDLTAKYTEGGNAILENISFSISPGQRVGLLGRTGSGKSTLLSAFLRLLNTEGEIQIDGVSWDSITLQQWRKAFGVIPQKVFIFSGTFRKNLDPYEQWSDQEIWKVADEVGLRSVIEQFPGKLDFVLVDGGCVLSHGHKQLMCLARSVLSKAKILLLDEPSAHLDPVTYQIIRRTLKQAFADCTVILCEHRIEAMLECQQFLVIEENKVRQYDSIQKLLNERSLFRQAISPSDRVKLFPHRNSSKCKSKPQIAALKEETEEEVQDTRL
# protocol: CFTR cell surface levels using HRP-tagged ΔF508-CFTR expressing CFBE cells, intrinsic corrector capacity
# Assay type: cell-based
# Design: concentration or dose not given beside the values
# test parameters: HRP-tagged ΔF508-CFTR expressing CFBE41o- cells; compound alone (intrinsic corrector capacity); 20 hours at 33° C.
Each entry below carries its recorded % Activation.

{"columns": ["chemical structure", "readout unit", "% Activation"],
 "data": [
  ["CN(C1CCOCC1)C1CCN(c2cc(C(=O)NS(=O)(=O)N(C)C)nc3c2c(C2CCC2)nn3-c2ccc(F)cc2)CC1", "%", 185.8],
  ["O=C(c1cc(N2CCC(CN3CCCC3)CC2)c2c(C3CCC3)nn(-c3ccccc3)c2n1)N1CCCS1(=O)=O", "%", 67.125],
  ["Cc1nn(-c2ccccc2)c2nc(C(=O)NS(C)(=O)=O)cc(-c3ccc(N(C)C)cc3)c12", "%", 109],
  ["CS(=O)(=O)NC(=O)c1cc(N2CCC(COCc3ccccc3)CC2)c2c(C3CCC3)nn(-c3ccccc3)c2n1", "%", 267.5],
  ["CC(C)c1nn(-c2cccc(N(C)C)c2)c2nc(C(=O)NS(C)(=O)=O)cc(N3CCC(C#N)CC3)c12", "%", 285.57],
  ["COC1CCN(c2cc(C(=O)NS(C)(=O)=O)nc3c2c(C(C)C)nn3C2CCCCC2)CC1", "%", 220.98],
  ["COC(C)(C)C1CCN(c2cc(C(=O)NS(C)(=O)=O)nc3c2c(C2CCC2)nn3-c2ccccc2)CC1", "%", 319.6],
  ["CC(C)c1nn(-c2cccc(N(C)C)c2)c2nc(C(=O)NS(C)(=O)=O)cc(OCC3CCOCC3)c12", "%", 233.7],
  ["CS(=O)(=O)NC(=O)c1cc(OCCCN2CCOCC2)c2c(C3CCC3)nn(-c3ccccc3)c2n1", "%", 230.15],
  ["CC1(S(=O)(=O)NC(=O)c2cc(N3CCC(N4CCN(C5CC5)CC4)CC3)c3c(C4CCC4)nn(-c4ccccc4)c3n2)CC1", "%", 248.5],
  ["CC(C)c1nn(C2CCCCC2)c2nc(C(=O)NS(C)(=O)=O)cc(-c3ccc(N4CCC(C)(C#N)CC4)nc3)c12", "%", 154],
  ["COCC1CCN(c2cc(C(=O)NS(=O)(=O)CCNC(C)=O)nc3c2c(C2CCC2)nn3-c2ccccc2)CC1", "%", 237.85],
  ["COCC1CCN(c2cc(C(=O)NS(=O)(=O)CCNC(=O)OCc3ccccc3)nc3c2c(C2CCC2)nn3-c2ccccc2)CC1", "%", 368.2],
  ["COCCS(=O)(=O)NC(=O)c1cc(N2CCC(N3CCOCC3)CC2)c2c(C3CCC3)nn(C3CCCCC3)c2n1", "%", 293]
]}
